ASSAY_DETAILS: Solubility (phosphate buffered saline)
Format: physicochemical
TEST_PARAMETERS: read-out: S
MEASUREMENT_LABEL: log10(solubility) (log10 of the value in µM)
Note the log scale: values are log10 of solubility expressed in µM.

# log10(solubility) (molecule: COc1ncnc2c1ncn2[C@@H]1O[C@H](CO)[C@@H](OC(=O)COc2ccccc2)[C@@H]1OC(=O)COc1ccccc1 ) is 1.83

# log10(solubility) (molecule: COc1ncnc2c1ncn2[C@@H]1O[C@H](COC(=O)C(C)C)[C@@H](OC(=O)C(C)C)[C@@H]1OC(=O)C(C)C ) is 2.15

# log10(solubility) (molecule: CCCCC(=O)O[C@H]1[C@H](OC(=O)CCCC)[C@@H](CO)O[C@H]1n1cnc2c(OC)ncnc21 ) is 2.84

# log10(solubility) (molecule: COc1ncnc2c1ncn2[C@@H]1O[C@H](COC(=O)c2ccccc2)C(OC(=O)c2ccccc2)[C@@H]1O (single isomer, unassigned) ) is 1.52

# log10(solubility) (molecule: COc1ncnc2c1ncn2[C@@H]1O[C@H](COC(=O)C(C)(C)C)[C@@H](OC(=O)C(C)(C)C)[C@@H]1OC(=O)C(C)(C)C ) is 1.15

# log10(solubility) (molecule: COc1ncnc2c1ncn2[C@@H]1O[C@H](COC(=O)C(C)(C)C)[C@@H](O)[C@@H]1OC(=O)C(C)(C)C ) is 3.13

# log10(solubility) (molecule: COc1ncnc2c1ncn2[C@@H]1O[C@H](COC(=O)C(C)C)[C@@H](OC(=O)C(C)C)[C@@H]1O ) is 2.63

---

Species: Rattus norvegicus
ASSAY_DETAILS: Ester prodrugs: recovery of parent compound in rat urine
Type: ADME, organism-based
TEST_PARAMETERS: in vivo
MEASUREMENT_LABEL: Urinary recovery (%)
Give the value in % but do not write % after it.

# Urinary recovery (molecule: COc1ncnc2c1ncn2[C@@H]1O[C@H](COC(=O)Cc2ccccc2)[C@@H](OC(=O)Cc2ccccc2)[C@@H]1OC(=O)Cc1ccccc1 ) is 4.1

# Urinary recovery (molecule: COc1ncnc2c1ncn2[C@@H]1O[C@H](COC(=O)COc2ccccc2)[C@@H](OC(=O)COc2ccccc2)[C@@H]1O ) is 3.8

# Urinary recovery (molecule: CCCCC(=O)OC[C@H]1O[C@@H](n2cnc3c(OC)ncnc32)[C@@H](OC(=O)CCCC)[C@@H]1O ) is 15.3

# Urinary recovery (molecule: COc1ncnc2c1ncn2[C@@H]1O[C@H](COC(C)=O)[C@@H](OC(C)=O)[C@@H]1O ) is 16.3

# Urinary recovery (molecule: COc1ncnc2c1ncn2[C@@H]1O[C@H](COS(=O)(=O)c2ccc(C)cc2)[C@@H](OS(=O)(=O)c2ccc(C)cc2)[C@@H]1OS(=O)(=O)c1ccc(C)cc1 ) is 3

# Urinary recovery (molecule: CCCC(=O)OC[C@H]1O[C@@H](n2cnc3c(OC)ncnc32)[C@@H](O)[C@@H]1OC(=O)CCC ) is 11.8

# Urinary recovery (molecule: COc1ncnc2c1ncn2[C@@H]1O[C@H](COC(=O)C(C)C)[C@@H](OC(=O)C(C)C)[C@@H]1OC(=O)C(C)C ) is 2.1

# Urinary recovery (molecule: COc1ccc(C(=O)O[C@H]2[C@H](OC(=O)c3ccc(OC)cc3)[C@@H](CO)O[C@H]2n2cnc3c(OC)ncnc32)cc1 ) is 0.2

# Urinary recovery (molecule: COc1ncnc2c1ncn2[C@@H]1O[C@H](COC(=O)C(C)(C)C)[C@@H](OC(=O)C(C)(C)C)[C@@H]1OC(=O)C(C)(C)C ) is 5.4

# Urinary recovery (molecule: COc1ncnc2c1ncn2[C@@H]1O[C@H](COC(=O)C(C)C)[C@@H](OC(=O)C(C)C)[C@@H]1O ) is 17.7

# Urinary recovery (molecule: CCCCCC(=O)O[C@H]1[C@H](OC(=O)CCCCC)[C@@H](CO)O[C@H]1n1cnc2c(OC)ncnc21 ) is 4.8

# Urinary recovery (molecule: CCCCC(=O)OC[C@H]1O[C@@H](n2cnc3c(OC)ncnc32)[C@@H](OC(=O)CCCC)[C@@H]1OC(=O)CCCC ) is 2.2

# Urinary recovery (molecule: COc1ccc(C(=O)OC[C@H]2O[C@@H](n3cnc4c(OC)ncnc43)[C@@H](O)C2OC(=O)c2ccc(OC)cc2)cc1 (single isomer, unassigned) ) is 0.2

# Urinary recovery (molecule: COc1ncnc2c1ncn2[C@@H]1O[C@H](CO)[C@@H](OC(=O)Cc2ccccc2)[C@@H]1OC(=O)Cc1ccccc1 ) is 2.7

# Urinary recovery (molecule: COc1ncnc2c1ncn2[C@@H]1O[C@H](CO)[C@@H](OC(=O)C(C)(C)C)[C@@H]1OC(=O)C(C)(C)C ) is 1.6

Where do these numbers come from? They come from ChEMBL document CHEMBL1126024.
